System: UO-31
assay details: NCI tumour cell line growth inhibition, 48 h
Calls of active or inactive are those of the source. Rule as the data show it: active = GI50 up to about 1.1 µM and inactive = higher.
Quick list: GI50 per entry.

compound=COc1ccc2nc3cc([N+](=O)[O-])ccc3c(Nc3ccc(S(=O)(=O)Nc4ncccn4)cc3)c2c1 result="19.4 µM (inactive)"

Query: I am curious: what GI50 value has been reported for [N-]=[N+]=Nc1nc2ccccc2c(N=[N+]=[N-])c1Cl ?
Result: > 100 µM (inactive)

Query: What does the data say about its GI50? Entry: O=[N+]([O-])C(/C=N/Nc1ccccc1)/C=N/Nc1ccccc1
Result: > 100 µM (inactive)

Query: Could you tell me which GI50 is on file for Cc1cs/c(=N/c2ccccc2)n1CCC(O)(P(=O)(O)O)P(=O)(O)O ?
Result: > 100 µM (inactive)

Query: Consider the compound O=[N+]([O-])c1ccc(/N=N/N2CCCC2)cc1 and give its measured GI50.
Result: > 100 µM (inactive)

Query: Requested read-out: GI50. Entry: C/C(=N/O)c1cccc(Nc2nc3ccccc3c3[nH]c4ccccc4c23)c1
Result: 2.88 µM (inactive)

Query: May I ask what GI50 has been recorded for CC(C)/C(Cl)=N\OC(NC(=O)P(=O)(c1ccccc1)c1ccccc1)(C(F)(F)F)C(F)(F)F ?
Result: 7.05 µM (inactive)

Query: Give the measured GI50 of Cc1ccc(/C=N/n2c(Cc3ccccc3)n[nH]c2=O)cc1 .
Result: > 100 µM (inactive)

Query: Reported GI50, compound CCOC(=O)Nc1cc2c(c(N)n1)N=C(c1ccccc1)[C@H](C)N2 [MIVOBULIN ISETHIONATE] : ____
Result: 0.000303 µM (active)

Query: Request the reported GI50 associated with CC(C)[C@H]1NC(=O)[C@H]2N=C(S[C@H]2C)[C@@H]2CCCN2C(=O)[C@H](Cc2ccccc2)NC(=O)[C@@H]2CSC(=N2)[C@@H](Cc2ccccc2)NC(=O)[C@@H]2CSC1=N2
Result: 21.8 µM (inactive)
